target: T1, RSV prefusion F (preF), subtype B (respiratory syncytial virus subtype B); test: BLI, IgG
T1 construct: also called Prefusion subtype B
ENDPOINT_LABEL: pKd
To interpret pKd, take it as minus log10 of a concentration measured in moles per litre.

# example entries with known answers
ADI-14335 (antibody, V domains shown, full-length IgG; also called Ab 3) VH: EVQLVESGGGLVQPGRSLRLSCTASGFTFGDYAMSWVRQAPGKGLEWVGFIRSNAFGGTSEYAASVKGRFTISRDDSKSIAYLQMNSLKTEDTAVYYCTRDGIHDYGDSYYYYGMDVWGQGTTVTVSS VL: DIQLTQSPSSLSASVGDRVTITCRASQTVTTYLNWYQQKPGKAPKLLIYGASSLQSGVPSRFSGSGSGTDFTLTINSLQPEDFATYYCQQTYSTVTFGPGTKVEIK :: 9.05
ADI-25524 (antibody, V domains shown, full-length IgG) VH: EVQLLESGGGLVKPGGSLRLSCAASGFTFSSYSMNWVRQAPGKGLEWVSSISSSSSYIYYADSVKGRFTISRDNAKNSLYLQMNSLRAEDTAVYYCAREWSPIVVVTNAFDIWGQGTMVTVSS VL: QSVLTQPPSVSGAPGQRVTISCTGSSSNIGAGYDVHWYQQLPGTAPKLLIYGNSNRPSGVPDRFSGSKSGTSASLAITGLQAEDEADYYCQSYDSSLSGWVFGGGTKVTVL :: 7.63
ADI-22760 (antibody, V domains shown, full-length IgG; also called Ab 340) VH: EVQLVESGGGLVQPGRSLRLSCVASGFTFDDYAMHWVRQAPGKGLEWVSGINWNSGGIGYADSVKGRFTISRDNTKNSLYLQMNSLRAEDTALYYCAKDGSALMGYGVEVWGQGTTVTVSS VL: SYELTQPPSASGTPGQRVTISCSGSNSNIGNNYVYWYQQLPGTAPKLLIYRNNQWPSGVPDRFSASKSGTSASLAISGLRSEDEADYYCASWDDSLSALVFGGGTKLTVL :: 8.51
ADI-14377 (antibody, V domains shown, full-length IgG; also called Ab 45) VH: EVQLVESGGGVVQPGGSLRLSCAVSGITFSSYGMHWVRQAPGKGLEWVAFIRYDGSNKYYGDSLRGRFTISRDNSKNTLYLQMNSLRAEDTAVYYCAKDAVGIGGYYGLDVWGQGTTVTVSS VL: DIQMTQSPSSLSASVGDRVTITCRASQGIRNDLGWYQQKPGKAPKRLIYAASSLQSGVPSRFSGSGSGTEFTLTISSLQPEDFATYYCLQHNGYPWTFGQGTKVEIK :: 8.28
ADI-25559 (antibody, V domains shown, full-length IgG) VH: EVQLLESGGGLVKPGGSLRLSCAASGFTFSSYSMNWVRQAPGKGLEWVSSISSSSSYIYYADSVKGRFTISRDNAKNSLYLQMNSLRAEDTAVYYCARDAAAKYYFDYWGQGTLVTVSS VL: QPVLTQPPSVSGAPGQRVTISCTGSSSNIGAGYDVHWYQQLPGTAPKLLIYGNSNRPSGVPDRFSGSKSGTSASLAITGLQAEDEADYYCQSYDSSLSGKVFGTGTKLTVL :: 7.48

Next item in the queue.
// field: pKd; key: ADI-14348 (antibody, V domains shown, full-length IgG; also called Ab 16) VH: QVQLVESGGGVAQPGGSLRLSCVASGFTFSNYGMHWVRQAPGKGLEWVAFIRSDGSKKYYGDSGKGRFTISRDNSKNTLYLQMNSLRAEDTALYYCARERAGATFAFDIWGQGTTVTVSS VL: QSALTQPRSVSGSPGQSVTISCTGTSSDVGGYNFVSWYQHHPGKAPKLMIYDVTNRPSGVPDRFSGSKSGNTASLTISGLQADDEADYYCCSYAGGFTFYVFGTGTKVTVL ; value = 6.96
